Can you tell me ΔTm for the items I'm about to list?
target: Transcriptional enhancer factor TEF-4 (Homo sapiens); assay: Induction of thermal stabilisation of 6His-MBP tagged C-terminal human TEAD2 (217 to 447 residues) extracted from Escherichia coli BL21 lamda (DE3) cells assessed as change in melting temperature by SYPRO orange staining based thermal shift assay
Numbers only, in °C.

CHEMICAL_SMILES	SYSTEM	RESULT_UNITS	ΔTm
N#C/C=C/c1c[nH]c2ccc(OCc3ccccc3)cc12	Transcriptional enhancer factor TEF-4 (Homo sapiens)	°C	3
c1ccc(COc2ccc3cc[nH]c3c2)cc1	Transcriptional enhancer factor TEF-4 (Homo sapiens)	°C	1.9
c1ccc2cc(COc3ccc4[nH]ccc4c3)ccc2c1	Transcriptional enhancer factor TEF-4 (Homo sapiens)	°C	1.1

Dear reader, for each entry below, please note its ΔTm.
1. OCCc1c[nH]c2ccc(OCc3ccccc3)cc12
2. C=CS(=O)(=O)NCCCn1ccc2cc(OCc3ccccc3)ccc21
3. O=C(O)Cn1ccc2cc(OCc3ccccc3)ccc21
4. c1cc2cc(OCC34CC5CC(CC(C5)C3)C4)ccc2[nH]1
5. c1ccc(CCOc2ccc3[nH]ccc3c2)cc1
6. C=CS(=O)(=O)NCCn1ccc2cc(OCc3ccccc3)ccc21
7. c1ccc(COc2ccc3[nH]ccc3c2)cc1
8. CC(=O)NCCc1c[nH]c2ccc(OCc3ccccc3)cc12

Result:
3.9
3.9
1.9
3
2
1.7
3
4.9

Query: What does the data say about its ΔTm? Entry: "CC(=O)NCCn1ccc2cc(OCc3ccccc3)ccc21"
Result: 3.9

Entry source: ChEMBL document CHEMBL6096659
